Target: T1, human TROP2 protein (Sino Biological, #10428-H08H) (human, UniProt P09758 27-274)
T1 construct: bought protein; also called human Trop2 protein antigen (His tag); not shown: His tag
T1 sequence (looked up): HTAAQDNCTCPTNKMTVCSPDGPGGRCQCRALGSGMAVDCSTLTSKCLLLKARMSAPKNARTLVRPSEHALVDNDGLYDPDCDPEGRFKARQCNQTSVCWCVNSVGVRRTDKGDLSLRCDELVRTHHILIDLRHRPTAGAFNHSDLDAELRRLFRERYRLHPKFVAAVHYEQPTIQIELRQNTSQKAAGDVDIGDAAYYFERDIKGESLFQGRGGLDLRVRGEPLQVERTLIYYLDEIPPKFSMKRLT
Experiment: BLI, Octet RED96, AHC sensor
Listing of recorded Kd by entry.
Kindly answer with a numeric value in nM, unit omitted.

| Binder | Kd [nM] |
| --- | --- |
| PR001152 (antibody, human IgG1, kappa, V domains shown, fully human IgG1/kappa; also called antibody No. (15)) VH: QVQLVESGGAVVQPGRSLRLSCAASGFTFSHYGMHWVRQAPGKGLEWVAVIWYDGIKSYYVESVKGRFTISRDNSKNTLYLQMDRLRAEDTAVYYCARDGGFGESNYYGLDVWGQGTTVTVSS VL: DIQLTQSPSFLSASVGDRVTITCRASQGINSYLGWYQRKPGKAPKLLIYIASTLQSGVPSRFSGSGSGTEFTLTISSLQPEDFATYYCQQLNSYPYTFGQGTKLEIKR | 0.135 |
| PR001150 (antibody, human IgG1, kappa, V domains shown, fully human IgG1/kappa; also called antibody No. (13)) VH: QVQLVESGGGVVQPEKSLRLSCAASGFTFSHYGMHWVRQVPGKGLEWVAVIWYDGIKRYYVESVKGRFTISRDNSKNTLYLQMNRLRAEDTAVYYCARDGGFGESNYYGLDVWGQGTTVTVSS VL: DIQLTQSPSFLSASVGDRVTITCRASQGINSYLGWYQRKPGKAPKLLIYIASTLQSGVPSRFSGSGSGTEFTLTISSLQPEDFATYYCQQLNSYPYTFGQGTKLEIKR | 0.0326 |
| PR001134 (antibody, human IgG1, kappa, V domains shown, fully human IgG1/kappa; also called antibody No. (6)) VH: QVQLVESGGGVVQPGRSLRVSCIASGFFFSSYGMHWVRQAPGKGLEWVAVIWYDGSNEDYVDSVKGRFTISRDNSKNTLYLQMNSLRGEDTAMYYCARGGYNSGWWAFDIWGQGTMVTVSS VL: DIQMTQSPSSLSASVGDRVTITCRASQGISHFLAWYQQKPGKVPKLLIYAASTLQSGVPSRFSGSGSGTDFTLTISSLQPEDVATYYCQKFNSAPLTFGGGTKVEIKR | 5.42 |

Next item in the queue.
Would you kindly share the measured Kd for PR001156 (antibody, human IgG1, kappa, V domains shown, fully human IgG1/kappa; also called antibody No. (19)) VH: QVQLVESGGGVVQPGRSLRLSCEGSGFTFSHYGMHWVRQAPGKGLEWVAVIWYDGIKKNYVDSLKGRFTISRDNSKNTLYLQMNSLRAEDTAVYYCARDGGFGELNYYGMDVWGQGTTVTVSS VL: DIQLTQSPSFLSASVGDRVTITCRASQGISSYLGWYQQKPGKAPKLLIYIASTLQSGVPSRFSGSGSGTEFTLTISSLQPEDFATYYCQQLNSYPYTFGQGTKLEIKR ? 0.0916
